Below are IC50 values recorded for TGFBR2 (Homo sapiens).

Worked examples, 5 compounds total:
>>> result("CC(C)(C)OC(=O)NC1Cc2ccc(-c3cnc(N)c(C(=O)Nc4cnccc4N4CCOCC4)n3)cc2C1 (stereo not shown)")
"< 50 nM"
>>> result("CC(C)(C)OC(=O)N[C@H]1C[C@H](Oc2ccc(-c3cnc(N)c(C(=O)Nc4cnccc4N4CCOCC4)n3)cc2)C1")
"< 50 nM"
>>> result("NCCc1ccc(-c2cnc(N)c(C(=O)Nc3cnccc3-c3cccnc3)n2)cc1")
"< 50 nM"
>>> result("Nc1ncc(-c2ccc(C[C@@H](N)CO)cc2)nc1C(=O)Nc1cnccc1N1CCOCC1")
"< 50 nM"
>>> result("COC(=O)c1cc(-c2cnc(N)c(C(=O)Nc3cnccc3N3CCOCC3)n2)ccc1OCCCN1C(=O)c2ccccc2C1=O")
"50 to 100 nM"

## Task State measured IC50 of the compound Nc1ncc(-c2ccc(CC(=O)NCCNC(=O)OCc3ccccc3)cc2)nc1C(=O)Nc1cnccc1N1CCOCC1 with TGFBR2 (Homo sapiens).
Sequence (P37173 23-567): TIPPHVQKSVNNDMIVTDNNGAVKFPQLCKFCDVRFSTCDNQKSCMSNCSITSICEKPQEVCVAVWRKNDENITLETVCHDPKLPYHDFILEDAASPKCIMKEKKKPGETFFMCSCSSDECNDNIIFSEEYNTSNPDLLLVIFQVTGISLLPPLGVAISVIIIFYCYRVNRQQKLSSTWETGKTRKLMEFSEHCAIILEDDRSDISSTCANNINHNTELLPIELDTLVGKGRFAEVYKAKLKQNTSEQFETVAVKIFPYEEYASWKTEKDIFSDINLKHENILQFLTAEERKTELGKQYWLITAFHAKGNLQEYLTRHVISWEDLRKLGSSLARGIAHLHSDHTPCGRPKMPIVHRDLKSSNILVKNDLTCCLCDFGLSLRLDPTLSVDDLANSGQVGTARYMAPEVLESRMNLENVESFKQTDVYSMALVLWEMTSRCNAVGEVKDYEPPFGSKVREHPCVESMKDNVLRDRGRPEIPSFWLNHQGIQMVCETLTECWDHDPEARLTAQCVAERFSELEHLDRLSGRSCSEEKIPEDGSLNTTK
## Result < 50 nM

## Task Provide the reported IC50 (system: TGFBR2 (Homo sapiens)) for NCc1cccc(-c2cnc(N)c(C(=O)Nc3cnccc3N3CCOCC3)n2)c1
## Result 100 to 1000 nM

###

Items are presented alongside their recorded pIC50.
assay system: TGFBR2 (Homo sapiens)
pIC50: −log10 of the molar value.

Below, 5 compounds whose answers are already recorded.
>>> result("CC(C)[C@H](N)C(=O)N1CCC[C@H]1C(=O)NCc1ccc(-c2cnc(N)c(C(=O)Nc3cnccc3N3CCOCC3)n2)cc1 [Compound 112]")
"> 7.30"
>>> result("CC1CCNc2ccc(-c3cnc(N)c(C(=O)Nc4cnccc4N4CCOCC4)n3)cc21 (stereo not drawn) [Compound 216]")
"> 7.30"
>>> result("Nc1ncc(-c2ccc(O[C@H]3CCN(C(=O)OCc4ccccc4)C3)cc2)nc1C(=O)Nc1cnccc1N1CCOCC1 [Compound 164]")
"7.00 to 7.30"
>>> result("Nc1ncc(-c2ccc(O[C@H]3CCCNC3)cc2)nc1C(=O)Nc1cnccc1N1CCOCC1 [Compound 169]")
"> 7.30"
>>> result("COC(=O)[C@@H](Cc1ccc(-c2cnc(N)c(C(=O)Nc3cnccc3N3CCOCC3)n2)cc1)NC(=O)OC(C)(C)C [Compound 192]")
"> 7.30"

## Task Specify measured pIC50 for Nc1ncc(-c2ccc3c(c2)CC(N)C3)nc1C(=O)Nc1cnccc1N1CCOCC1 (stereo not drawn) [Compound 213] .
## Result > 7.30

## Task Please report pIC50 for the following compound: COC(=O)c1cc(-c2cnc(N)c(C(=O)Nc3cnccc3N3CCOCC3)n2)ccc1OCCCNC(=O)OC(C)(C)C [Compound 241]
## Result 6.00 to 7.00

## Task Determine from records and report pIC50 for NCCOc1ccc(-c2cnc(N)c(C(=O)Nc3cnccc3N3CCOCC3)n2)cc1 [Compound 64]
## Result > 7.30

## Task Kindly indicate its recorded pIC50. Item: NCCNC(=O)Cc1ccc(-c2cnc(N)c(C(=O)Nc3cnccc3N3CCOCC3)n2)cc1 [Compound 80]
## Result 7.00 to 7.30

## Task Item COc1cccc(-c2ccncc2NC(=O)c2nc(-c3ccc(CCNC(=O)OCc4ccccc4)cc3)cnc2N)c1 [Compound 24] : provide pIC50
## Result 6.00 to 7.00

## Task Report pIC50 for Nc1ncc(-c2ccc(CCNC(=O)CCC(=O)c3ccccc3)cc2)nc1C(=O)Nc1cnccc1N1CCOCC1 [Compound 54]
## Result > 7.30

## Task Check the records and state pIC50 for CC(C)[C@H](NC(=O)OC(C)(C)C)C(=O)N[C@@H](C)C(=O)NCc1ccc(-c2cnc(N)c(C(=O)Nc3cnccc3N3CCOCC3)n2)cc1 [Compound 107]
## Result > 7.30

## Task Complete the entry with pIC50 for Nc1ncc(-c2ccc(CCNC(=O)OCc3ccccc3)cc2)nc1C(=O)Nc1cnccc1-c1cc[nH]c(=O)c1 [Compound 39]
## Result 6.00 to 7.00

## Task Answer with the recorded pIC50 of CC(C)(C)OC(=O)N1CCc2cc(-c3cnc(N)c(C(=O)Nc4cnccc4N4CCOCC4)n3)ccc2C1 [Compound 78] only.
## Result > 7.30

## Task Give me measured pIC50, please, for this compound: Nc1ncc(-c2cccc(CNC(=O)OCc3ccccc3)c2)nc1C(=O)Nc1cnccc1N1CCOCC1 [Compound 176]
## Result > 7.30

// provenance: patent US20220362396A1
